Test system: Recombinant ROCK1 (amino acids 1-477) (Homo sapiens, UniProt Q13464)
Construct: Recombinant ROCK1 (amino acids 1-477)
Sequence (Q13464 1-477): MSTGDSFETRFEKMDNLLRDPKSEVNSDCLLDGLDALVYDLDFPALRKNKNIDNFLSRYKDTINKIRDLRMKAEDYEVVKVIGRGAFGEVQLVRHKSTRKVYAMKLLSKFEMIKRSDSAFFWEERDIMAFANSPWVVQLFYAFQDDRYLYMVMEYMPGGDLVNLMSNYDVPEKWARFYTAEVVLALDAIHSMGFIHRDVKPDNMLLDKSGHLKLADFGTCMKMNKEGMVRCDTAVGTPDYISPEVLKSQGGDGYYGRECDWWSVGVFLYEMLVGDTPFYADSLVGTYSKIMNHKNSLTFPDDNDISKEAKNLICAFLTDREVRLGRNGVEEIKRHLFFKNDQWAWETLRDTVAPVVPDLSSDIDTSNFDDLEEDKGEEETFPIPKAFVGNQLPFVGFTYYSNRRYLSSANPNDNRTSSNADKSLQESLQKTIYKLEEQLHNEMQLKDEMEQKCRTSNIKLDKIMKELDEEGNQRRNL
Assay protocol: ROCK inhibition assay, LANCE Ultra TR-FRET (ROCK1)
Setup conditions: 1 mM of ATP
Experimental endpoint: IC50

{"columns": ["Molecule", "Test system", "Experimental endpoint", "Measured value"],
 "data": [
  ["COc1[nH]ncc1-c1ccc2c(C(=O)[C@@H]3COc4ccc(F)cc4C3)cn(CCN(C)C)c2c1 [Compound 5-39]", "Recombinant ROCK1 (amino acids 1-477) (Homo sapiens, UniProt Q13464)", "IC50", "> 501 nM"],
  ["CN(C)CCn1nc(C(=O)C2COc3ccc(F)cc3C2)c2ccc(-c3c[nH]nc3Cl)cc21 (stereo not shown) [Compound 5-52]", "Recombinant ROCK1 (amino acids 1-477) (Homo sapiens, UniProt Q13464)", "IC50", "201 to 500 nM"],
  ["COc1ccc2c(c1)C[C@@H](C(=O)c1cn(CCN(C)C)c3cc(-c4c[nH]nc4Cl)ccc13)CO2 [Compound 5-8]", "Recombinant ROCK1 (amino acids 1-477) (Homo sapiens, UniProt Q13464)", "IC50", "> 501 nM"],
  ["COc1n[nH]cc1-c1ccc2c(C(=O)[C@H]3COc4ccc(Cl)cc4C3)cn(CCCN(C)C)c2c1 [Compound 3-8]", "Recombinant ROCK1 (amino acids 1-477) (Homo sapiens, UniProt Q13464)", "IC50", "> 501 nM"],
  ["COc1[nH]ncc1-c1cc2c(cn1)c(C(=O)C1COc3ccc(Cl)cc3C1)cn2CCN(C)C (stereo not shown) [Compound 1-3]", "Recombinant ROCK1 (amino acids 1-477) (Homo sapiens, UniProt Q13464)", "IC50", "> 501 nM"],
  ["CN1CC[C@H]1Cn1nc(C(=O)C2COc3ccc(F)cc3C2)c2ccc(-c3c[nH]nc3F)cc21 (stereo partly shown) [Compound 5-56]", "Recombinant ROCK1 (amino acids 1-477) (Homo sapiens, UniProt Q13464)", "IC50", "> 501 nM"]
]}

Entry under review: CN(C)CCn1cc(C(=O)[C@@H]2COc3ccc(F)cc3C2)c2ccc(-c3c[nH]nc3Cl)cc21 [Compound 5-21] . Reported IC50? 201 to 500 nM

###

Test system: Recombinant ROCK2 (amino acids 5-554) (Homo sapiens)
Construct: ROCK2 (amino acids 5-554)
Assay protocol: ROCK inhibition assay, LANCE Ultra TR-FRET (ROCK2)
Setup conditions: 1 mM of ATP
Each entry below carries its recorded IC50.

Some solved cases for reference:
{"columns": ["Molecule", "Test system", "IC50"],
 "data": [
  ["CN(C)C1(Cn2cc(C(=O)C3COc4ccc(Cl)cc4C3)c3ccc(-c4cn[nH]c4Cl)cc32)CC1 (stereo not shown) [Compound 2-13]", "Recombinant ROCK2 (amino acids 5-554) (Homo sapiens)", "21 to 200 nM"],
  ["COc1ccc2c(c1)CC(C(=O)c1cn(C[C@H]3CCN3C)c3cc(-c4cn[nH]c4Cl)ccc13)CO2 (stereo partly shown) [Compound 1-50]", "Recombinant ROCK2 (amino acids 5-554) (Homo sapiens)", "< 20 nM"]
]}

Entry under review: CCN1CC[C@@H]1Cn1cc(C(=O)C2COc3ccc(OC)cc3C2)c2ccc(-c3cn[nH]c3Cl)cc21 (stereo partly shown) [Compound 1-58] . Reported IC50? 21 to 200 nM

Entry under review: CCN(CC)CCn1cc(C(=O)C2COc3ccc(OC)cc3C2)c2ccc(-c3cn[nH]c3F)cc21 (stereo not shown) [Compound 3-22] . Reported IC50? < 20 nM

###

Test system: Recombinant ROCK1 (amino acids 1-477) (Homo sapiens, UniProt Q13464)
Construct: Recombinant ROCK1 (amino acids 1-477)
Assay protocol: ROCK inhibition assay, LANCE Ultra TR-FRET (ROCK1)
Setup conditions: 1 mM of ATP
Description: Kinase IC50 was determined through an in vitro assay based on LANCE Ultra TR-FRET (Time-Resolved Fluorescence Resonance Energy Transfer) homogeneous technologies method 5 (Perkin Elmer). […] Compound activities were measured by Envision and IC50s were calculated. […] The reaction was incubated for 1 hour, and the signal was read in Envision in TR-FRET mode (excitation at 320 nm and emission at 615/665 nm). […]
pIC50: −log10 of the molar value.
Experimental endpoint: pIC50

Some solved cases for reference:
{"columns": ["Molecule", "Test system", "pIC50"],
 "data": [
  ["CN(C)CCn1nc(C(=O)[C@@H]2COc3ccccc3O2)c2ccc(-c3cn[nH]c3)cc21 [Compound 5-44]", "Recombinant ROCK1 (amino acids 1-477) (Homo sapiens, UniProt Q13464)", "6.30 to 6.70"],
  ["COc1[nH]ncc1-c1ccc2c(C(=O)C3COc4ccc(Cl)cc4C3)cn(CC3CNC3)c2c1 (stereo not drawn) [Compound 1-22]", "Recombinant ROCK1 (amino acids 1-477) (Homo sapiens, UniProt Q13464)", "> 7.70"]
]}

Would you kindly look at the next entry?
Entry under review: CCN1CC[C@@H]1Cn1cc(C(=O)C2COc3ccc(OC)cc3C2)c2ccc(-c3cn[nH]c3OC)cc21 (stereo partly drawn) [Compound 1-56] . Reported pIC50? < 6.30

###

Test system: Recombinant ROCK2 (amino acids 5-554) (Homo sapiens, UniProt O75116)
Construct: ROCK2 (amino acids 5-554)
Sequence (O75116 5-554): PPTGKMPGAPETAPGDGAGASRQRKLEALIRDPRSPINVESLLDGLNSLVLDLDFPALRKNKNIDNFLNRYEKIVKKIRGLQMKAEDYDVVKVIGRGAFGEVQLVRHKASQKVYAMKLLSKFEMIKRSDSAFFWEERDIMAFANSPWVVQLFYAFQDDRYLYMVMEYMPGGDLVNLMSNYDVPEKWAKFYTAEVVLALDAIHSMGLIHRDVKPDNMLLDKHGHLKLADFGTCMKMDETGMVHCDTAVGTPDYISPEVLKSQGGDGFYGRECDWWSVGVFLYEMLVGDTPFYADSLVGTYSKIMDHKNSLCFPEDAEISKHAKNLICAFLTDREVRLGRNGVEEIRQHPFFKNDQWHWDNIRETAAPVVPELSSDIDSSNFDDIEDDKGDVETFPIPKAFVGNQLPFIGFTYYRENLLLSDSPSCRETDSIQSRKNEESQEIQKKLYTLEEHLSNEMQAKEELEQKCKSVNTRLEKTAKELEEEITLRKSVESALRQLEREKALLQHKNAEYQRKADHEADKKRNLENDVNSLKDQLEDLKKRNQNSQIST
Assay protocol: ROCK inhibition assay, LANCE Ultra TR-FRET (ROCK2)
Setup conditions: 1 mM of ATP
Each entry below carries its recorded IC50.

Some solved cases for reference:
{"columns": ["Molecule", "IC50"],
 "data": [
  ["CNCCn1cc(C(=O)C2COc3ccc(F)cc3C2)c2cnc(-c3c[nH]nc3Cl)cc21 (stereo not drawn)", "21 to 200 nM"],
  ["CN1CC[C@H]1Cn1nc(C(=O)C2COc3ccc(F)cc3C2)c2ccc(-c3c[nH]nc3F)cc21 (stereo partly drawn)", "21 to 200 nM"]
]}

Entry under review: NC1(Cn2cc(C(=O)C3COc4ccc(Cl)cc4C3)c3ccc(-c4cn[nH]c4Cl)cc32)CC1 (stereo not drawn) . Reported IC50? < 20 nM

Entry under review: COc1ccc2c(c1)CC(C(=O)c1cn(C[C@@H]3CCN3)c3cc(-c4cn[nH]c4OC)ccc13)CO2 (stereo partly drawn) . Reported IC50? < 20 nM

###

Test system: Recombinant ROCK1 (amino acids 1-477) (Homo sapiens, UniProt Q13464)
Construct: Recombinant ROCK1 (amino acids 1-477)
Assay protocol: ROCK inhibition assay, LANCE Ultra TR-FRET (ROCK1)
Setup conditions: 1 mM of ATP
Experimental endpoint: IC50

{"columns": ["Compound", "Experimental endpoint", "Measured value"],
 "data": [
  ["CN1CCCC1Cn1cc(C(=O)C2COc3ccc(Cl)cc3C2)c2ccc(-c3cn[nH]c3F)cc21 (stereo not drawn) [Compound 1-27]", "IC50", "0.201 to 0.5 µM"]
]}

Entry under review: CCN(CC)CCn1cc(C(=O)[C@@H]2COc3ccc(OC)cc3C2)c2ccc(-c3cn[nH]c3Cl)cc21 [Compound 3-20] . Reported IC50? 0.201 to 0.5 µM

Entry under review: O=C(c1cn(C2CNC2)c2cc(-c3c[nH]nc3Cl)ncc12)C1COc2ccc(F)cc2C1 (stereo not drawn) [Compound 1-15] . Reported IC50? > 0.501 µM

###

Test system: Recombinant ROCK2 (amino acids 5-554) (Homo sapiens)
Construct: ROCK2 (amino acids 5-554)
Assay protocol: ROCK inhibition assay, LANCE Ultra TR-FRET (ROCK2)
Setup conditions: 1 mM of ATP
pIC50: −log10 of the molar value.
Experimental endpoint: pIC50

Some solved cases for reference:
{"columns": ["Compound", "pIC50"],
 "data": [
  ["NCCn1cc(C(=O)C2COc3ccc(Cl)cc3C2)c2cnc(-c3c[nH]nc3Cl)cc21 (stereo not drawn)", "> 7.70"],
  ["O=C(c1cn(CC2CCN2)c2cc(-c3cn[nH]c3F)ccc12)C1COc2ccc(Cl)cc2C1 (stereo not drawn)", "> 7.70"],
  ["COc1[nH]ncc1-c1cc2c(cn1)c(C(=O)C1COc3ccc(Cl)cc3C1)cn2CCN(C)C (stereo not drawn) [Compound 1-1]", "6.70 to 7.68"],
  ["CN(C)CCn1cc(C(=O)C2COc3ccc(F)cc3C2)c2ccc(-c3c[nH]nc3Cl)nc21 (stereo not drawn)", "6.70 to 7.68"],
  ["CN(C)CCn1cc(C(=O)C2COc3ccc(Cl)cc3C2)c2ccc(-c3cn[nH]c3F)cc21 (stereo not drawn)", "6.70 to 7.68"]
]}

Form entry - test system: Recombinant ROCK2 (amino acids 5-554) (Homo sapiens); read-out: pIC50; compound: `COc1ccc2c(c1)C[C@H](C(=O)c1cn(C[C@H]3CCN3C)c3cc(-c4cn[nH]c4Cl)ccc13)CO2` > 7.70

Form entry - test system: Recombinant ROCK2 (amino acids 5-554) (Homo sapiens); read-out: pIC50; compound: COc1ccc2c(c1)CC(C(=O)c1cn(C[C@@H]3CCN3)c3cc(-c4cn[nH]c4F)ccc13)CO2 (stereo partly drawn) > 7.70

Form entry - test system: Recombinant ROCK2 (amino acids 5-554) (Homo sapiens); read-out: pIC50; compound: CN(C)CCn1nc(C(=O)C2CCOc3ccc(F)cc3C2)c2ccc(-c3c[nH]nc3Cl)cc21 (stereo not drawn) < 6.30

Form entry - test system: Recombinant ROCK2 (amino acids 5-554) (Homo sapiens); read-out: pIC50; compound: COc1[nH]ncc1-c1ccc2c(C(=O)C3COc4ccc(Cl)cc4C3)cn(CC3(N)CC3)c2c1 (stereo not drawn) > 7.70

Form entry - test system: Recombinant ROCK2 (amino acids 5-554) (Homo sapiens); read-out: pIC50; compound: `COc1ccc2c(c1)C[C@H](C(=O)c1cn(CCN(CCF)CCF)c3cc(-c4c[nH]nc4Cl)ccc13)CO2` 6.70 to 7.68

Form entry - test system: Recombinant ROCK2 (amino acids 5-554) (Homo sapiens); read-out: pIC50; compound: CN1CC[C@@H]1Cn1cc(C(=O)C2COc3ccc(Cl)cc3C2)c2ccc(-c3cn[nH]c3F)cc21 (stereo partly drawn) 6.30 to 6.70

Form entry - test system: Recombinant ROCK2 (amino acids 5-554) (Homo sapiens); read-out: pIC50; compound: CCN(C)CCn1cc(C(=O)[C@@H]2COc3ccc(OC)cc3C2)c2ccc(-c3cn[nH]c3Cl)cc21 [Compound 3-26] > 7.70

Form entry - test system: Recombinant ROCK2 (amino acids 5-554) (Homo sapiens); read-out: pIC50; compound: CN1CCCC1Cn1cc(C(=O)C2COc3ccc(Cl)cc3C2)c2ccc(-c3cn[nH]c3F)cc21 (stereo not drawn) 6.30 to 6.70
